Data origin, for the record: the array DNA melting data of Ke et al. (doi:10.1101/2024.01.08.574731)

Task for the reader: assign each of the following sequences its reported folding enthalpy.
- Assay Remarks: folding enthalpy; higher = less favourable; fluorescence melt of hairpins on a sequencing array, two-state fit
- Test Conditions: sodium 0.088 M
Your answer should be a plain number; it is taken to be in kcal/mol.

Sample GACCCACGAAAGTGCGTC (((.(((....))).))) — what was its folding enthalpy?
-26.1

Sample GAGAAGCGAAAGCTGCTC (((.(((....))).))) — what was its folding enthalpy?
-27.4

Sample GCGACGCGAAAGCGCAGC ((..(((....)))..)) — what was its folding enthalpy?
-15.5

Sample GATGTCGCGAAAGCGATC (((..(((....)))))) — what was its folding enthalpy?
-8.5

Sample GTCCGTCGAAAGACAGAC (((.(((....))).))) — what was its folding enthalpy?
-22.3

Sample GGTGCGGGAAACCGTGCC ((..(((....)))..)) — what was its folding enthalpy?
-46.1

Sample GGAACCGAAAGGTTCTCC ((((((....)))..))) — what was its folding enthalpy?
-10.8

Sample GATCCAAGACTGGATC ((((((....)))))) — what was its folding enthalpy?
-28.2

Sample GGGAACGAAAGTTTTCCC ((((((....)))..))) — what was its folding enthalpy?
-19.1

Sample GCTCCGGCGAAAGCCAGC (((..(((....)))))) — what was its folding enthalpy?
-11.2

Sample GATCACCCCAGTGATC ((((((....)))))) — what was its folding enthalpy?
-44.7

Sample GAGCGCGAAAGCGACTC ((((((....))).))) — what was its folding enthalpy?
-16.9

Sample GATCCGCCGACGGATC ((((((....)))))) — what was its folding enthalpy?
-38

Sample GGGGACGAAAGTCATCCC ((((((....)))..))) — what was its folding enthalpy?
-12.6

Sample GGCCATTCGAAAGAAGCC (((..(((....)))))) — what was its folding enthalpy?
-19.9

Sample GTAGGTGGAAACGCTTAC (((.(.(....).).))) — what was its folding enthalpy?
-23

Sample GATCGGCCACCGATC ((((((...)))))) — what was its folding enthalpy?
-31.7

Sample GCGAATCGAAAGATACGC (((.(((....))).))) — what was its folding enthalpy?
-44.5

Sample GGTAACGAAAGTTCGACC ((((((....)))..))) — what was its folding enthalpy?
-16

Sample GAGCCCGAAAGGGTCCTC ((((((....)))..))) — what was its folding enthalpy?
-13.2

Sample CGGTTCGGAAACGACCG (((.(((....)))))) — what was its folding enthalpy?
-35.6

Sample GATCGGGTTCCGATC ((((((...)))))) — what was its folding enthalpy?
-39.1

Sample GCGATCGGAAACGACCGC (((.(((....))).))) — what was its folding enthalpy?
-48.9

Sample GATCACAAGTGTGATC ((((((....)))))) — what was its folding enthalpy?
-39

Sample GCGCAAGGAAACCTACGC (((.(.(....).).))) — what was its folding enthalpy?
-16.4

====

- Assay Remarks: melting temperature; fluorescence melt of hairpins on a sequencing array, two-state fit, raised by 9.35 °C to match UV melts
- Test Conditions: sodium 0.088 M
Label scheme for Tm: lower than 50 °C is rule not met, 50 °C and above is rule met.

Would you say GTCTTTGGAAACAAAGGC (.(((((....))))).) shows Tm at minimum 50 °C?
rule not met

Would you say GCGTGACACGC ((((...)))) shows Tm at minimum 50 °C?
rule met

Would you say GTTGGGGGAAACTCCGAC ((.((.(....).)).)) shows Tm at minimum 50 °C?
rule not met

Would you say GAACACGGAAACGTGCTC ((.((((....)))).)) shows Tm at minimum 50 °C?
rule not met

Would you say GGTCCGCGAAAGCGAACC (((.(((....))).))) shows Tm at minimum 50 °C?
rule met

Would you say GGTCTCGGAAACGAGATC (.(((((....))))).) shows Tm at minimum 50 °C?
rule met

Would you say GGCTTCTCGAAAGAGGCC (((..(((....)))))) shows Tm at minimum 50 °C?
rule not met

Would you say GGATCGCGAAAGCGTCC (((.(((....)))))) shows Tm at minimum 50 °C?
rule met

Would you say GCGTTTATACGC ((((....)))) shows Tm at minimum 50 °C?
rule met

Would you say GGTCGATCGAAAGATACC (((..(((....)))))) shows Tm at minimum 50 °C?
rule not met
